Hey, just so you know, these numbers are from patent US8637505B2.

study target: 11β-HSD1 (Homo sapiens)
Construct: detecting cortisol generated from cortisterone by human liver microsomes; from tissue; host or cells: human liver microsomes
Sequence (P28845 whole entry): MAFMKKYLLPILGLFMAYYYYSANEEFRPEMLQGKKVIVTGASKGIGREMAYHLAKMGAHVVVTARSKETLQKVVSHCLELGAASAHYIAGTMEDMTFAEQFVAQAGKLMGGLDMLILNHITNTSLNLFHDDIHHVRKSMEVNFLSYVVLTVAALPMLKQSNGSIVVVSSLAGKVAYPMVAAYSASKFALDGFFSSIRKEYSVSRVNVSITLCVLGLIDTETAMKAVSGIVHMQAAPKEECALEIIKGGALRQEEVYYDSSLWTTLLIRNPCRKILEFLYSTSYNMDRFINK
protocol description: In vitro inhibition of 11β-HSD1, HTRF detection of cortisol generated by human liver microsomes
Type: biochemical
condition set: read-out: Average % control inhibition at 100 nM
recorded metric: remaining activity at 0.1 µM (%)
Number in %, nothing else.

Worked set:
C[C@@H](c1ccc(-c2ccoc2)cc1)N1CC[C@](CC(C)(C)O)(c2ccccc2)OC1=O [Example 20]	10
Cc1nnc(-c2ccc([C@H](C)N3CC[C@](CC(C)C)(c4ccccc4)OC3=O)cc2)o1 (stereo in doubt) [Example 1]	2

Ask: Which remaining activity at 0.1 µM value is on record for C[C@@H](c1ccc(-c2ncon2)cc1)N1CC[C@](CC(C)(C)O)(c2ccccc2)OC1=O [Example 7] ?
Reply: 50

Ask: Look up remaining activity at 0.1 µM for this molecule: Cc1nnc(-c2ccc([C@H](C)N3CC[C@](CC(C)(C)O)(c4ccccc4)OC3=O)cc2)n1C [Example 2]
Reply: 95

Ask: I am curious: what remaining activity at 0.1 µM value has been reported for Cc1nnc(-c2ccc([C@H](C)N3CC[C@](CC(C)(C)O)(c4ccccc4)OC3=O)cc2)o1 [Example 3] ?
Reply: 38
